Molecular target: collagenase
Assay: In vitro antiprotease activity
Assay type: biochemical
Conditions: 15 min preincubation
Reported mean IC50 against Collagenase is given for each of the following compounds.
Give the quantity in µg/mL, number only.

Cc1nc2ccc(Br)cc2c(=O)n1/N=C/c1ccc(C#N)cc1 = 14.50
Cc1nc2ccc(Br)cc2c(=O)n1/N=C/c1ccc2ccccc2c1 = 4.25
COc1cc(-n2c(C)nc3ccccc3c2=O)cc(OC)c1OC = 12.25

Req: Recorded mean IC50 against Collagenase for Cc1nc2ccc(Br)cc2c(=O)n1/N=C/c1ccc(-c2ccccc2)cc1 , please?
Resp: 14.00

Req: Recorded mean IC50 against Collagenase for Cc1nc2ccccc2c(=O)n1/N=C/c1ccc(C#N)cc1 , please?
Resp: 17.25

Req: Recorded mean IC50 against Collagenase for COc1cccc(/C=N/n2c(C)nc3ccc(Br)cc3c2=O)c1[N+](=O)[O-] , please?
Resp: 15.50

Req: Recorded mean IC50 against Collagenase for Cc1ccc2nc(SCC(=O)Nc3cccc(C)c3C)n(-c3ccccc3)c(=O)c2c1 [Compound 15f] , please?
Resp: 10.50

Req: Recorded mean IC50 against Collagenase for Cc1nc2ccc(Br)cc2c(=O)n1/N=C/c1ccc(-c2ccccn2)cc1 , please?
Resp: 3.00

Req: Recorded mean IC50 against Collagenase for Cc1nc2ccccc2c(=O)n1NC(=O)OCC(C)C , please?
Resp: 28.00

* * *

Target: human group X (hG-X) sPLA2 (Homo sapiens)
Sequence (O15496 43-165): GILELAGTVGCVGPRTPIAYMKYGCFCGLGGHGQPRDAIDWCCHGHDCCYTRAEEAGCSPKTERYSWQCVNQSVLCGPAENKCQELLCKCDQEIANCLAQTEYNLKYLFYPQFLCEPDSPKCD
Assay: In vitro antiphospholipase activity
Format: biochemical
Conditions: 20 min preincubation, lecithin substrate, pH 7.6; read-out: mean IC50 against hG-X (converted)
Reported IC50 is given for each of the following compounds.

Consider the following illustrative entries.
COc1cc(-n2c(C)nc3ccc(F)cc3c2=O)cc(OC)c1OC = 24.7 µM
Cc1ccc2nc(SCc3ccc(Cl)cc3)n(-c3ccccc3)c(=O)c2c1 [Compound 15b] = 34.4 µM
Cc1nc2ccccc2c(=O)n1NC(=O)OCC(C)C = 34.5 µM

Req: Recorded IC50 for COc1cccc(/C=N/n2c(C)nc3ccc(Br)cc3c2=O)c1[N+](=O)[O-] with human group X (hG-X) sPLA2 (Homo sapiens), please?
Resp: 43.1 µM

Req: Recorded IC50 for Cc1nc2ccc(Br)cc2c(=O)n1/N=C/c1ccc(-c2ccccc2)cc1 with human group X (hG-X) sPLA2 (Homo sapiens), please?
Resp: 22.6 µM

Req: Recorded IC50 for Cc1nc2ccccc2c(=O)n1/N=C/c1ccc2ccccc2c1 with human group X (hG-X) sPLA2 (Homo sapiens), please?
Resp: 90.9 µM

Req: Recorded IC50 for Cc1cccc(NC(=O)CSc2nc3ccccc3c(=O)n2-c2ccccc2)c1C [Compound 15e] with human group X (hG-X) sPLA2 (Homo sapiens), please?
Resp: 17.4 µM

Req: Recorded IC50 for COc1cccc(/C=N/n2c(C)nc3ccccc3c2=O)c1[N+](=O)[O-] with human group X (hG-X) sPLA2 (Homo sapiens), please?
Resp: 34.7 µM

Req: Recorded IC50 for Cc1nc2ccc(Br)cc2c(=O)n1/N=C/c1ccc(C#N)cc1 with human group X (hG-X) sPLA2 (Homo sapiens), please?
Resp: 112 µM

* * *

Biological target: cathepsin-B (Homo sapiens, UniProt P07858)
Assay: In vitro antiprotease activity
Format: biochemical
Conditions: 15 min preincubation; read-out: mean IC50 against Cathepsin-B (converted)
Threshold 40 µM. IC50 below it: fulfilled. IC50 at it or above: not fulfilled.

These solved cases illustrate the format of a correct answer.
Cc1nc2ccccc2c(=O)n1/N=C/c1ccc(C#N)cc1 = fulfilled
Cc1nc2ccc(Br)cc2c(=O)n1/N=C/c1ccc(-c2ccccn2)cc1 = not fulfilled
Cc1cccc(NC(=O)CSc2nc3ccccc3c(=O)n2-c2ccccc2)c1C [Compound 15e] = fulfilled
COc1cc(-n2c(C)nc3ccc(Cl)cc3c2=O)cc(OC)c1OC = fulfilled

Req: hey, is IC50 for Cc1cccc(C)c1NC(=O)CSc1nc2ccccc2c(=O)n1-c1ccccc1 [Compound 15c] lower than 40 µM or not?
Resp: fulfilled

Req: hey, is IC50 for COc1cccc(/C=N/n2c(C)nc3ccc(Br)cc3c2=O)c1[N+](=O)[O-] lower than 40 µM or not?
Resp: not fulfilled

Req: hey, is IC50 for Cc1nc2ccc(Br)cc2c(=O)n1/N=C/c1ccc2ccccc2c1 lower than 40 µM or not?
Resp: not fulfilled

Req: hey, is IC50 for O=c1c2ccccc2nc(SCc2ccc(Cl)cc2)n1-c1ccccc1 [Compound 15a] lower than 40 µM or not?
Resp: not fulfilled

Req: hey, is IC50 for Cc1ccc2nc(SCC(=O)Nc3cccc(C)c3C)n(-c3ccccc3)c(=O)c2c1 [Compound 15f] lower than 40 µM or not?
Resp: fulfilled

Req: hey, is IC50 for Cc1nc2ccccc2c(=O)n1/N=C/c1ccc(-c2ccccc2)cc1 lower than 40 µM or not?
Resp: fulfilled

Req: hey, is IC50 for Cc1nc2ccccc2c(=O)n1/N=C/c1ccc(-c2ccccn2)cc1 lower than 40 µM or not?
Resp: fulfilled

Req: hey, is IC50 for Cc1nc2ccc(Br)cc2c(=O)n1/N=C/c1ccc(C#N)cc1 lower than 40 µM or not?
Resp: fulfilled

Source listed as paper PMC6407576.
